Assign selectivity ratio to each entry below.
- experimental.details: Therapeutic index (IC50/EC50)
- Assay type: cell-based
- assay.context: human, H9 cells; read-out: Therapeutic index
Give bare numbers.

structure=COc1cc([C@@H]2c3cc4c(cc3[C@@H](Nc3ccc(F)cc3)[C@H]3COC(=O)[C@H]23)OCO4)cc(OC)c1O assay_result=10
structure=CCN(CC)CCN[C@@H]1c2cc3c(cc2[C@@H](c2cc(OC)c(O)c(OC)c2)[C@H]2C(=O)OC[C@@H]21)OCO3 assay_result=0.8
structure=COc1cc([C@@H]2c3cc4c(cc3C(=O)[C@H]3COC(=O)[C@H]23)OCO4)cc(OC)c1O assay_result=2.1
structure=COc1cc([C@@H]2c3cc(O)c(O)cc3[C@@H](Nc3ccc(F)cc3)[C@H]3COC(=O)[C@H]23)cc(OC)c1O assay_result=4.1
structure=COc1cc([C@@H]2c3cc4c(cc3[C@@H](Nc3ccc(F)cc3)[C@H]3COC[C@H]23)OCO4)cc(OC)c1O assay_result=12.5

// for each molecule in input: emit selectivity ratio
1. COc1cc([C@@H]2c3cc4c(cc3[C@@H](O)[C@H]3COC(=O)[C@H]23)OCO4)cc(N)c1N
2. CCS[C@@H]1c2cc3c(cc2[C@@H](c2cc(OC)c(OC)c(OC)c2)[C@H]2C(=O)OC[C@@H]21)OCO3

OUT:
1. 3.9
2. 2
